Test system: P. falciparum Dd2 (PfLuc) line expressing firefly luciferase, asexual blood stage
assayRemarks: microbe, parasite or virus in culture
Type: cell-based, Plasmodium falciparum
assayContext: Plasmodium falciparum, DD2, read-out: CDD P. falciparum Luciferase ABS 11-pt Reconfirmation Dose Response (48hr): IC50 (μM); 11-pt dose response, 48hr
recordedEndpoint: IC50

As a guide, the following entries are already answered.
Query O=C(CC1CCCC1)NCCNCc1cccc2c1OCCO2 yields IC50 of > 12.5 µM

The recorded IC50 for entry NCC1Cc2cc(-c3nccc(N4CCC(O)CC4)n3)cc(F)c2O1 (stereo not shown) equals 2.43 µM

Given item Cc1cc(C)c(CNCC(O)c2ccc(F)c(F)c2)c(C)c1 (stereo not shown) , the value recorded as its IC50 is 0.316 µM

The measured IC50 associated with COc1ccc(C)cc1CN1CCC(c2cc3ncccc3cn2)CC1 reads 0.0507 µM

So, O=C(c1ccccc1)C1CCN(Cc2cc3c(cc2O)CCC3)CC1 ? Its IC50 was 1.73 µM

Continuing:
get_value(item= CCNc1ccnc(CN2CCCC2C(=O)Nc2nccs2)c1 (stereo not shown) , readout=IC50) returns 0.73 µM

Looking up OCCN1CCC(CNCc2ccc(Br)cc2)CC1 , I see its IC50 listed as 2.84 µM

Measured IC50, Cc1cccc(CNC(CN2CCN(C)CC2)c2ccccc2)c1 (stereo not shown) : 2.73 µM

The recorded IC50 for Cc1ccc2[nH]c(-c3cn(C4CCNCC4)nn3)nc2c1C is 2.21 µM

The reported IC50 of the compound CC(NCC1CCN(CCO)CC1)c1ccc(F)c(Cl)c1 (stereo not shown) was 3.46 µM
